Overview of recorded GI50 for various molecules
system: MCF7 breast; test: NCI tumour cell line growth inhibition, 48 h
endpoint-label: GI50

* Nc1cc(-c2ccc(Cl)cc2)nn1-c1nnc(/C=C/c2ccco2)c(=O)[nH]1 | 2.95 µM
* COc1ccc(C(=O)c2nc3ccccc3n2CC(=O)c2ccc(Cl)cc2)cc1 | 2.1 µM
* COc1ccc(Nc2nccc(N3CCN(c4c5ccc(Cl)cc5nc5ccc(OC)cc45)CC3)n2)cc1 | 3.67 µM
* CCn1c(-c2nonc2N)nc2ccncc21 | > 25 µM
* C/C1=C\CC[C@@](C)(O)[C@@H]2C[C@H](CC/C(C)=C/CC1)C1(CC1)C(=O)O2 | 66.9 µM
* Nc1ccc(-c2nn3c(COc4ccc(Cl)cc4)nnc3s2)cc1 | 41 µM
* COc1cccc(COc2cc(-n3cnc4ccccc43)sc2C(N)=O)c1 | 1.08 µM
* Clc1ccc2c(c1)N(c1ncnc3ccc(-c4cnc5[nH]ncc5c4)cc13)CC2 | 0.228 µM

----------
system: K-562 leukemia; assay: NCI tumour cell line growth inhibition, 48 h
Overview of recorded TGI for various compounds
endpoint-label: TGI

- Nc1nc(Nc2ccccc2)sc1C(=O)c1ccco1: 57.7 µM
- Clc1ccc(/C(=C\c2ccccc2)Cn2ccnc2)cc1: > 100 µM
- CC1(C)CC(=O)C(CC2C(=O)c3ccccc3C2=O)C(=O)C1: > 100 µM
- Cc1c2ccncc2c(C)c2c1[nH]c1ccc(O)c(OCC(F)(F)F)c12: 33.9 µM
- CC(C)(C)OC(=O)NC1CCCC1=O (stereo not given): > 100 µM
- COc1ccc(OC)c2sc(N3C(=O)/C(=C/c4cccc([N+](=O)[O-])c4)N=C3c3ccccc3)nc12: 63.7 µM
- CC(C)Oc1ccc(C(=O)Cn2ccnc2)cc1-n1c(CN2CCN(C(=O)COc3ccc(Cl)cc3)CC2)nc2ccccc2c1=O: 81.3 µM
- CCCCCCCCCCCCCCCCCCOCC(COCCOCC[N+]1(CCCCCC(=O)[O-])CCCC1)Oc1ncccn1 (stereo not given): 14.2 µM
- Nc1ccccc1C(=O)C(Br)C(Br)c1ccc2c(c1)OCO2 (stereo not given): > 100 µM
- c1ccc(C2CC(=NC3CCCCC3)Nc3ccccc3N2)cc1 (stereo not given): > 100 µM
- COc1ccc2[nH]c(-c3ccc(O)cc3)cc(=O)c2c1: > 48.3 µM
- CC(C)(C)NCC(COc1ccc([N+](=O)[O-])cc1)OP(c1ccccc1)c1ccccc1 (stereo not given): > 100 µM
- Cc1cccc(C)c1N1C(=O)C(=O)C(c2nc3ccccc3s2)C(=Nc2cccc3c(=O)[nH][nH]c(=O)c23)C1=O (stereo not given): > 100 µM
- C/C1=C\CC[C@@](C)(O)[C@@H]2C[C@H](CC/C(C)=C/CC1)C1(CC1)C(=O)O2: 46.6 µM
- O=C(O)/C=C\C(=O)Nc1ccc(S(=O)(=O)c2ccc(NC(=O)/C=C\C(=O)O)cc2)cc1: > 100 µM
- COc1cc(C2c3cc4c(cc3[C@@H](Nc3ccc5c(c3)OCO5)C3COC(=O)[C@H]23)OCO4)cc(OC)c1O (stereo not given in full): 9.74 µM
- CCOC(=O)C1=CC(C)(C(=O)OCC)Nc2c(nc(N)[nH]c2=O)N1 (stereo not given): > 10 µM
- CC(C)=CCC[C@@H](C)C1=C(O)C(N)=C(C)C(=O)C1=O: > 100 µM
- O=C(NN1C(=O)CSC1c1cccc(F)c1)c1ccncc1 (stereo not given): > 100 µM
- C[C@H]1OC(=O)[C@@H]2N=NN(Cc3ccccc3)[C@H]12: > 100 µM
